Entry source: patent EP4624487A1

Could you please report measured inhibition rate (%) for the items listed next?
# MEASUREMENT TARGET: antiserum C2
# METHOD DESCRIPTION: competition ELISA: peptide added to C2 on plate-bound hTNFα
Reply with just the number (in %).

What value of inhibition rate (%) has been reported for the following binder? QTKVNLLSAIKSPCQ [hTNFα peptide H(88-102)] 5

Query (binder): SEGLYLIYSQVLFKG [hTNFα peptide H(52-66)] ; field requested: inhibition rate (%) 21

Query: inhibition rate (%); subject: HVLLTHTISRIAVSY [hTNFα peptide H(73-87)] -1

Dear colleague, I am looking for the recorded inhibition rate (%) of the following binder: LGGVFQLEKGDRLSA [hTNFα peptide H(120-134)] 10

Any idea what inhibition rate (%) was measured for AHVVANPQAEGQLQW [hTNFα peptide H(14-28)] ? 7
